# tested on: GPC3 on the surface of hepatic cancer cell lines (SK-Hep1-GPC3 transfectant, HepG2, Huh7, Hep3B, SNU398) (human) (UniProt P51654)
# protocol text: FACS, HepG2 cells, 1 ug antibody; upper right panel (Synthetic library)
Measured Mean, FL2-H, listed per entry for reference.

Completed entries (count: 2):
[[record]]
binder = "clone GS015 (scFv, V domains shown) VH: EVQLLESGGGLAQPGGSLRLSCAASGFTFSDYSMSWVRQAPGKGLEWVSAISPDGGSKYYADSVKGRFTISRDNSKNTLYLQMNSLRAEDTAVYYCARFRVIKLRAGWYSANGMDVWGQGTLVTVSS VL: QSVLTQPPSASGTPGQRVTISCSGSSSNIGNNDVSWYQQLPGTAPKLLIYYNSKRPSGVPDRFSGSKSGTSASLAISGLRSEDEADYYCGAWDDSLNGYVFGGGTKLTVLG"
result = 3.64

[[record]]
binder = "clone GS002 (scFv, V domains shown) VH: EVQLLESGGGLVQPGGSLRLSCAASGFTFSGYSMSWVRQAPGKGLEWVSSISPGGSSTYYADSVKGRFTISRDNSKNTLYLQMSSLRAEDTAVYYCARYRVWHMTTGDYYSNAMDVWGQGTLVTVSS VL: QSVLTQPPSASGTPGQRVTISCTGSSSNIGSNAVSWYQQLPGTAPKLLIYDDNKRPSGVLDRFSGSKSGTSASLAISGLRSEDEADYYCGTWDDSLSGYVFGGGTKLTVLG"
result = 4.71


# input for lookup
Form field: reported Mean, FL2-H of clone GS006 (scFv, V domains shown) VH: EVQLLESGGGLVQPGGSLRLSCAASGFTFSGYSMSWVRQAPGKGLEWVSAISPGGGSKYYADSVRGRFTVSRDNSKNTLYLQMNSLRAEDTAVYYCARYRVQKSAKNVYSSNGMDVWGQGTLVTVSS VL: QSVLTQPPPASGTPGQRVTISCSGSSSNIGNNAVNWYQQLPGTAPKLLIYYDSNRPSGVPDRFSGSKSGTSASLAISGLRSEDEADYYCGAWDSSLSAYVFGGGTKLTVLG
3.41
